Experiment: Antitumor activity against human 10.05 cells expressing mutated p53
Type: functional, cell-based
Measurement name: IC50 (nM)
Note: unit nM is implicit; provide only the numeric part.

# Structure smiles, Unit annotation, IC50
rows = [
    ("O=C1c2cccc3cc([N+](=O)[O-])cc(c23)C(=O)N1CCCN1CCN(CCCNc2ccc3ncn4c5ccccc5c(=O)c2c34)CC1", "nM", 300),
]

With those in mind, consider the next compound.
Exam item: I would be grateful if you could share the reported IC50 for `COc1ccc2c(c1)c(=O)c1c(NCCCN3CCN(CCCN4C(=O)c5cccc6cc([N+](=O)[O-])cc(c56)C4=O)CC3)ccc3ncn2c31.CS(=O)(=O)O` .
Marked response: 90

Data origin, for the record: ChEMBL document CHEMBL1138232
